All figures here come from PubChem BioAssay (NCI).

Test system: M14 melanoma
Assay: NCI tumour cell line growth inhibition, 48 h
*1 amine or outer side, *2 acyl side, *3 side chain or, on linkers, in order; H or OH if unused. Where a SMILES comes first, the peptide text is derived from it. Bridges are numbered along the chain shown (N, C = ends). Roman numbers before positions name the chains, in order. [ ]: non-standard residue; d: D form. Actinocin(9to1) = Cc1c2oc3c(C)ccc(C(=O)[*:1])c3nc-2c(C(=O)[*:2])c(N)c1=O; NMeV = CN[CH](C(=O)O)C(C)C; Sar = CNCC(=O)O

{"columns": ["COMPOUND", "TGI"],
 "data": [
  ["Cc1cn(CC2=NCC(C)(C)N2)c(=O)[nH]c1=O", "> 100 µM"],
  ["Cc1ccc2c(O)c(O)cc(NC(C)CCCN)c2n1 (centres undefined)", "> 88.1 µM"],
  ["Oc1ccc(SCc2cc(O)c(O)c(O)c2)cc1", "33.1 µM"],
  ["CC(=O)O/N=C1/C(c2c(O)[nH]c3cc(Br)ccc23)=Nc2ccccc21", "4.88 µM"],
  ["COc1cc2c[n+](C)c3c4ccccc4ccc3c2cc1OC (tested in a mixture with another compound)", "51.9 µM"],
  ["O=c1c(C=Nc2ccc([N+](=O)[O-])cc2)c(O)n(-c2ccccc2)c(=O)n1-c1ccccc1", "> 100 µM"],
  ["CCOC(=O)/C=C(\\C(=O)OCC)n1ccc(N)nc1=O", "> 100 µM"],
  ["COc1ccc2c(c1)N=C1CSC(c3ccccc3Cl)N1C2 (centres undefined)", "28.3 µM"],
  ["Cc1c2oc3c(C)ccc(C(=O)NC4C(=O)NC(C(C)O)C(=O)N5CCCC5C(=O)N(C)CC(=O)N(C)C(C(C)C)C(=O)OC4C)c3nc-2c(C(=O)NC2C(=O)NC(C(C)O)C(=O)N3CCCC3C(=O)N(C)CC(=O)N(C)C(C(C)C)C(=O)OC2C)c(N)c1=O (centres undefined) (I: TTP[Sar][NMeV] / II: TTP[Sar][NMeV]; ester I:1-I:C, II:1-II:C; linker I:N-II:N via Actinocin(9to1); configuration not given here)", "3.77 µM"],
  ["c1ccc2c(c1)CCc1cc3cc4c(nc3nc1-2)-c1ccccc1CC4", "> 100 µM"],
  ["S=C1Nc2ccc(Cl)cc2C2(c3ccccc3)N3CCN=C3NN12 (centres undefined)", "> 100 µM"],
  ["O=C(CCl)N1c2ccccc2Sc2ccc3ccccc3c21", "3.43 µM"],
  ["COC(=O)C1(F)C(=O)NC(=O)NC1O (centres undefined)", "> 100 µM"],
  ["CC(CO)C1C[C@H](O)[C@@]2(C)CC(=O)C=C(CO)[C@@H]2C1 (some centres undefined)", "> 100 µM"],
  ["CCCCCCCCCCCCCCCCCCNc1ccn(C2OC(COP(=O)(O)OCC3OC(n4cc(C)c(=O)[nH]c4=O)CC3N=[N+]=[N-])C(O)C2O)c(=O)n1 (centres undefined)", "36.1 µM"],
  ["CC(C)(C)C1(COC(=O)c2ccc(N)cc2)COC1", "> 100 µM"],
  ["COc1ccc(-n2c3c(c4c(CN5CCOCC5)c(O)ccc42)CCc2ccccc2C3=O)cc1", "> 100 µM"],
  ["O=C1/C(=C/c2ccccc2[N+](=O)[O-])N=C(c2ccccc2)N1C1Nc2cc3c(cc2S1)NC(N1C(=O)/C(=C/c2ccccc2[N+](=O)[O-])N=C1c1ccccc1)S3 (centres undefined)", "> 100 µM"],
  ["CCN(c1ccc(Br)cc1)c1c(Br)c(=O)nc2ccccn12", "> 100 µM"]
]}
